system: NCI/ADR-RES ovarian; test: NCI-60 one-dose screen, 48 h (100 = growth as untreated, 0 = no growth, -100 = all killed); conditions: 10 µM unless noted
About 83,000 compounds went through this panel and 20% of them were active in at least one assay; those are over-represented in the sample as a whole.
Recorded growth by entry
Attribute measured: growth (%)

INSERT INTO assay_data (molecule, attribute_measured, value_reported) VALUES
  ('Cc1ccc2c(N/N=C\c3ccco3)cc(C)nc2n1', 'growth', 71.8),
  ('COc1ccccc1CNCCCCCCCCCCCCN1C(=O)c2ccc3c4c(ccc(c24)C1=O)C(=O)N(CCCCCCCCCCCCNCc1ccccc1OC)C3=O', 'growth', 85),
  ('Cc1cccc2c(=O)c3c(sc12)c(NCCNCCO)nc1ccccc13', 'growth', 45.1),
  ('CCCCNNC(=O)c1ccc(Br)cc1', 'growth', 23.5),
  ('COc1cccc(-c2ccc3c(c2)C2CCN(Cc4ccccc4)C3C2)c1 (stereo unspecified)', 'growth', 68.8),
  ('O=S(=O)(Nc1ncccn1)c1ccc(Nc2ccc3nnc(-c4ccncc4)n3n2)cc1', 'growth', 102),
  ('CC1SC(c2ccc(Cl)cc2)N(CCc2cccs2)C1=O (stereo unspecified)', 'growth', -11),
  ('COC(=O)c1ccc(C(=O)Nc2ccccc2N)cc1', 'growth', 53.1),
  ('N#CCCN1CCN(CCC#N)C1=S', 'growth', 102),
  ('COC(=O)c1c2c(c(C)[n+]([O-])c1C)C(=O)C=C(NCc1ccc(F)c(Cl)c1)C2=O', 'growth', -18.6),
  ('COc1ccc(OC2=C(C#N)C(=N)N3c4ccccc4Sc4ccccc4C3N2)cc1 (stereo unspecified)', 'growth', 85.2),
  ('COc1ccc(/C=N/OCC(O)CNCc2ccccc2)cc1OC1CCCC1 (stereo unspecified)', 'growth', 104),
  ('O=c1[nH]c(-c2ccccn2)nc2sc3c(c12)CCCCCC3', 'growth', 24.6),
  ('Brc1ccc(SCN(CSc2ccc(Br)cc2)Cc2ccccc2)cc1', 'growth', 73.4),
  ('COc1cc(/C=N/NC(=O)c2cnn3c2NC(c2ccccc2)C3)cc(OC)c1OC (stereo unspecified)', 'growth', 82.9),
  ('OB(O)c1ccccc1', 'growth', 104),
  ('O=C1/C(=C/c2ccc(Cl)cc2)CN(Cc2cn(CCCNc3ccnc4cc(Cl)ccc34)nn2)C/C1=C\c1ccc(Cl)cc1', 'growth', 2.36),
  ('Clc1nc(-c2ccccn2)nc2sc3c(c12)CCCCCC3', 'growth', 89.3),
  ('Clc1ccc(Nc2nc(Nc3ccccc3)nc(Nc3ccc(-c4cc(-c5ccc(Cl)cc5)on4)cc3)n2)cc1', 'growth', 51.4),
  ('COc1cccc(C2C3=C(COC3=O)N(CCO)c3cc4c(cc32)CCC4)c1 (stereo unspecified)', 'growth', -43.2),
  ('COC(=O)[C@H]1CCCN1C(=O)[C@H]1CCCN1C(=O)[C@@H](Cc1c[nH]c2ccccc12)NC(=S)Nc1cc(C(F)(F)F)cc(C(F)(F)F)c1', 'growth', 89.9);
